Where these numbers come from: PubChem BioAssay (NCI)

Assay: NCI Yeast Anticancer Drug Screen. Data for the rad50 strain (AID 155);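 also: 0% = growth of vehicle-only cultures of the same strain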
Details: S. cerevisiae rad50 strain growth inhibition; at 5.0 µM (retest, dose inferred, filed as 0.5); stronger effect = higher value
Compounds without any hit were thinned out: in the full panel of roughly 79,000, 15% have a hit. The source made the active and inactive calls. Rule as the data show it: active = growth inhibition above about 70%; inactive = the rest.
valueKind: growth inhibition

Problem: Look up growth inhibition for this compound: "Nc1cc2ccccc2cc1N"
Solution: 14% (inactive)

Problem: Continue with "CN(C)CCNc1ccc2ncn3c4ccc(O)cc4c(=O)c1c23"
Solution: 50% (inactive)

Problem: And the next one, CC(=O)/C(=C\c1ccc(Cl)c(Cl)c1)C(=O)C(C)CN(C)C (configuration not stated) ?
Solution: 14% (inactive)

Problem: Let us now turn to "Fc1ccc(Nc2ccc3ccccc3c2)cc1"
Solution: -1% (inactive)

Problem: How about this compound: "CCC(/C=C/c1ccccc1)=N\Nc1ccc(Cl)cc1"
Solution: 2% (inactive)

Problem: And then CCCCCCCCN1COCC(COc2ccccc2C)OC1 (configuration not stated) , what is it?
Solution: 0% (inactive)

Problem: Please give the result for CC1=CN2C(c3ccccc3)=NON(c3ccc(C)cn3)C2C=C1 (configuration not stated) too.
Solution: -5% (inactive)

Problem: How about "Nc1ccc(N=Nc2ccc(-c3ccc(O)cc3)cc2)c2ccc(S(=O)(=O)O)cc12" ?
Solution: 8% (inactive)

Problem: Moving on to the next compound: "COc1cccc(/C=C2\S/C(=N/Nc3nc(-c4ccc([N+](=O)[O-])cc4)cs3)NC2=O)c1O"
Solution: -1% (inactive)

Problem: Another: O=NC1c2cccc3cccc(c23)C1N=O (configuration not stated)
Solution: 17% (inactive)

Problem: What do we get for CC12CCC(CC(=O)/C1=C(/Br)I)C2(C)C (configuration not stated) ?
Solution: 1% (inactive)

Problem: Repeat for the following compound: "CN1CCN(C(=O)c2cccc3cccc(C(=O)O)c23)CC1"
Solution: -12% (inactive)

====

Assay: NCI Yeast Anticancer Drug Screen. Data for the mlh1 strain (AID 171);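 also: 0% = growth of vehicle-treated control cultures of the same strain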
Conditions: S. cerevisiae mlh1 strain growth inhibition; at 3.7 µM
About 79,000 compounds went through this panel and 15% of them were active in at least one assay; those are over-represented in the sample as a whole. Activity calls are given as the source filed them. Rule as the data show it: active = growth inhibition above about 70%; inactive = the rest.
Result category, one only: active, inactive

Problem: Fill in: this test's call for "CC1=CC(=O)C=CC1=Nc1cc(Cl)c(O)c(Cl)c1" is ___
Solution: inactive

Problem: Can you check NC(N)=NC(N)=Nc1ccccc1 (tested in a mixture with another compound) next?
Solution: inactive

Problem: What about this molecule? "CC1=C(C)C(=O)C2=C(OCCO2)C1=O"
Solution: inactive

Problem: Next up: O=C(O)C1CCCCC1c1c2ccc(=O)cc-2oc2cc(O)ccc12 (stereo not drawn)
Solution: inactive

Problem: Same question, "CN(C)CC(CN(C)C)C(=O)/C=C/c1ccc(Cl)cc1Cl" this time
Solution: inactive

Problem: One more molecule: C=C(C(=O)OC)N1C(=O)CC(C)C1=O (stereo not drawn)
Solution: inactive

Problem: "O=C(O)/C=C\C(=O)Nc1ccc2c(c1)Cc1cc(Cl)ccc1-2" ?
Solution: inactive

Problem: Another: "COc1ccc2nc3cccc([N+](=O)[O-])c3c(NCCNCCO)c2c1"
Solution: inactive

Problem: Same again, this time with "Nc1ccc(S(=O)(=O)Nc2nc3c(c(=O)[nH]2)CCCC3)cc1"
Solution: inactive

Problem: Would you kindly repeat that for COc1ccccc1/C=C\C(=O)C1COCN1 (stereo not drawn) ?
Solution: inactive

Problem: Consider next the molecule "CC(C)OC(=O)NNc1cc(Cl)ccc1Cl" in the same way.
Solution: inactive

Problem: Same lookup for "O=C(Nc1ccc(Cl)cc1)c1cc2cc(N=Nc3ccccc3Cl)ccc2oc1=O" , please.
Solution: inactive

Problem: Quick one: "CCS(=O)(=O)Nc1ccc(Nc2c3ccccc3nc3ccccc23)c(OC)c1"
Solution: inactive

Problem: What do you have for COc1cc2c(cc1O)[C@H](C)C(c1ccccc1OC)O2 (stereo partly drawn) ?
Solution: inactive

Problem: Now the molecule CCCCCCC1OCC(O)C(OCCCC)O1 (stereo not drawn)
Solution: inactive

Problem: Next: O=C1NC(c2cccc(OCc3ccccc3)c2)Nc2ccccc21 (stereo not drawn)
Solution: inactive

Problem: Likewise for C/C1=C/C2OC(=O)C3(C)C2C(CC2(C)OC1=CC2=O)OC3(O)C(C)C (stereo not drawn) ?
Solution: inactive

Problem: Repeat for the following molecule: "CN(C)/C(=N/C(=S)Nc1ccccc1)SCc1ccccc1"
Solution: inactive

Problem: Then this molecule: "CCOP(=O)(OCC)/C(C#N)=C\c1cccc2ccccc12"
Solution: inactive

Problem: And then "CC(=O)N1C=Cc2c(c(C)c3c([nH]c4ccccc43)c2C)C1" , what is it?
Solution: active

Problem: Check O=C(Cc1ccccc1)NN1C(=O)C(Cl)C1c1cc(Br)cc(Br)c1O (stereo not drawn) too.
Solution: inactive

Problem: Follow-up item: CC(C(=O)N1C(=O)N(C(=O)C(C)C(O)c2ccccc2)C2CCCCC21)C(O)c1ccccc1 (stereo not drawn)
Solution: inactive

Problem: Queued: "O=C(/C(=C/c1ccc(O)cc1)c1ccccc1)c1ccccc1"
Solution: inactive
